Listing of recorded AC50 by entry.
System: Clone20 osteoblast Shn3 3'UTR firefly luciferase, 24 h
Assay: Shn3 3'UTR reporter inhibitors, dose response, cell-based, Clone20 osteoblasts, luminescence, dry powder, set 2 (AID 743417)
Results filed as inconclusive are left out.

# molecule, value observed
rows = [
    ("O=C(OCCOc1ccc(Cl)cc1)c1cc(S(=O)(=O)N2CCCCC2)ccc1N1CCOCC1", "1970 nM"),
    ("OC(c1cc(-c2cccc(Cl)c2)nc2ccccc12)C1CCCCN1 (stereo unspecified)", "10800 nM"),
    ("CCCOc1ccccc1C1CC(=O)Nc2cc3c(cc21)OCO3 (stereo unspecified)", "5720 nM"),
    ("CCCCCOc1ccc(Br)cc1CSC(=N)N", "1470 nM"),
    ("NC(c1csc(NC(=O)Nc2cccc(C(F)(F)F)c2)n1)C1CCCCC1 (stereo unspecified)", "4810 nM"),
    ("Cn1nnnc1Sc1ncnc2scc(-c3ccc(Br)cc3)c12", "334 nM"),
]

Next molecule, AC50 to be filled in.
Problem: If you can, please state the reported AC50 value of O=C(CSc1ccccn1)Nc1nonc1[N+](=O)[O-] .
Result: 5000 nM

* * *

Reported values of AC50 for individual entries
Tested on: Clone20 osteoblast Shn3 3'UTR firefly luciferase, 24 h
Experiment: Shn3 3'UTR reporter inhibitors, dose response, cell-based, Clone20 osteoblasts, luminescence, dry powder, set 2 (AID 743417)
Records with an inconclusive call do not appear.

As a guide, the following entries are already answered.
# compound, tested on, AC50
measured = [
    ("CC(=O)Nc1cccc(NC(=O)CSc2ncc(-c3ccc(Cl)cc3)n2Cc2ccco2)c1", "Clone20 osteoblast Shn3 3'UTR firefly luciferase, 24 h", "4.95 µM"),
    ("CCOc1cc(/C=C2\\C(=O)ON=C2C)ccc1OCc1ccccc1", "Clone20 osteoblast Shn3 3'UTR firefly luciferase, 24 h", "10.4 µM"),
    ("O=C(/C=C/c1ccc(OCc2ccccc2)c(OCc2ccccc2)c1)c1cccnc1", "Clone20 osteoblast Shn3 3'UTR firefly luciferase, 24 h", "5.19 µM"),
]

Problem: # input compound: CCN1CCN(Cc2ccc(NC(=O)c3ccc(C)c(NC(=O)c4c[nH]c5cc(C(F)(F)F)ccc5c4=O)c3)cc2C(F)(F)F)CC1 ; wanted: its AC50
Result: 3.13 µM

Problem: Further, for Fc1ccc2[nH]c3c(NCc4ccccc4)ncnc3c2c1 ?
Result: 3.09 µM

Problem: Subsequent entry: COc1ccc(NS(=O)(=O)c2ccc(N3CCOCC3)c(N)c2)cc1
Result: 1.08 µM

Problem: Also need O=C(Nc1cc2c3c(c1)C1CCCC1CN3CC1CCCC21)c1ccc([N+](=O)[O-])cc1 (centres undefined) , thanks.
Result: 2.2 µM

Problem: Next entry: CC(C)c1ccccc1-n1c(SCC(=O)N2CCc3ccccc3C2)nc2ccccc2c1=O
Result: 2.99 µM

Problem: Same question for O=C(Nc1ccc(S(=O)(=O)N2CCCC2)cc1)c1ccc(CN2CCc3ccccc3C2)cc1 please.
Result: 0.575 µM

* * *

Tested on: Clone20 osteoblast Shn3 3'UTR firefly luciferase, 24 h
Test: Shn3 3'UTR reporter inhibitors, dose response, cell-based, Clone20 osteoblasts, luminescence, dry powder, set 2 (AID 743417)
Inconclusive results are not listed. Activity calls are given as the source filed them.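 Rule for the calls: active = compounds lowering the luciferase signal with a fitted half-maximal dose at most twice their top valid dose (cut at about 30 µM in these data); inconclusive = flat fits with moderate signal loss, or poor fits; inactive = the rest.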
Pick from T (active), F (inactive) when you respond.

Worked set:
# molecule, assigned category
records = [
    ("CCC(=O)NC(c1ccc(Cl)cc1Cl)c1ccc2cccnc2c1O (stereo not given)", "T"),
    ("Cc1cc(F)ccc1S(=O)(=O)Nc1ccccc1C(=O)Nc1ccccc1-c1nc2ccccc2[nH]1", "T"),
    ("Cc1ccccc1OCC(O)Cn1c(=N)n(Cc2ccccc2)c2ccccc21 (stereo not given)", "T"),
    ("COC(=O)C[C@]1(C(=O)OC)CN(C#N)N(c2ccc(Cl)cc2)C12c1ccccc1-c1ccccc12", "T"),
    ("O=[N+]([O-])c1cc(CN2CCN(c3ccccc3)CC2)c(O)c2ncccc12", "T"),
    ("CN(C)c1ncnc2c1C(c1ccccc1)C(C)(C)O2 (stereo not given)", "F"),
    ("Cc1cccc(-n2ncc(Cl)c(Cl)c2=O)c1", "T"),
    ("N=c1n(Cc2ccccc2)c2ccccc2n1CC(O)COc1ccc(Cl)cc1Cl (stereo not given)", "T"),
]

Problem: Call for entry Cc1ccc(C)c(S(=O)(=O)N2CCN(C(=O)C3CCN(c4ncnc5sc(C)c(C)c45)CC3)CC2)c1 :
Result: T

Problem: Request: Cc1c(CCOC(=O)C23CC4(C)CC(C)(CC(C)(C4)C2)C3)sc[n+]1CC(=O)c1ccccc1
Result: T

Problem: Now the same for CC(C)c1ccc(NC(=O)Nc2nc(C(N)COCc3ccccc3)cs2)cc1 (stereo not given)
Result: T

* * *

Parameter: AC50. Scope: all listed entries.
Tested on: Clone20 osteoblast Shn3 3'UTR firefly luciferase, 24 h
Assay: Shn3 3'UTR reporter inhibitors, dose response, cell-based, Clone20 osteoblasts, luminescence, dry powder, set 2 (AID 743417)
Results filed as inconclusive are left out.

Worked cases, AC50 given:
# molecule, readout label, value observed
rows = [
    ("COc1ccc(C(NC(=O)C(C)C)c2ccc3cccnc3c2O)cc1 (stereo unspecified)", "AC50", "1.35 µM"),
    ("Cn1cc([N+](=O)[O-])c(C(=O)Nc2sc3c(c2C#N)CCC3)n1", "AC50", "0.88 µM"),
    ("O=C(Nc1cccc(Cl)c1Cl)C1CC(=O)N(c2ccc(Br)cc2)C1 (stereo unspecified)", "AC50", "8.23 µM"),
    ("Clc1ccc(C[n+]2cc(-c3ccccc3)n3c2CCCCC3)c(Cl)c1", "AC50", "1.2 µM"),
    ("O=C1C(=C(c2ccccc2)N2CCOCC2)Cc2ccccc21", "AC50", "0.999 µM"),
]

Problem: Reported AC50 for Clone20 osteoblast Shn3 3'UTR firefly luciferase, 24 h, given COc1ccc(CNc2ncnc3sccc23)cc1OC ?
Result: 2.34 µM

Problem: Now give it for OC[C@@H]1CN(Cc2ccc(-c3ccccc3)cc2)C[C@H](n2cnc3c(NCc4ccc(F)cc4)ncnc32)O1 too.
Result: 1.58 µM

* * *

System: Clone20 osteoblast Shn3 3'UTR firefly luciferase, 24 h
Experiment: Shn3 3'UTR reporter inhibitors, dose response, cell-based, Clone20 osteoblasts, luminescence, dry powder, set 2 (AID 743417)
Results filed as inconclusive are left out. Activity calls are given as the source filed them.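 Rule for the calls: active = compounds lowering the luciferase signal with a fitted half-maximal dose at most twice their top valid dose (cut at about 30 µM in these data); inconclusive = flat fits with moderate signal loss, or poor fits; inactive = the rest.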
Choose the fitting class; nothing outside active, inactive is accepted.

Known results for compounds:
# compound, assigned category
rows = [
    ("CC1=C(C(=O)NC2CCCc3c2cnn3-c2cccc(C)c2C)OCCO1 (stereo unspecified)", "active"),
    ("Cc1cc(C(=O)COC(=O)c2ccccc2Br)c(C)n1CC1CCCO1 (stereo unspecified)", "inactive"),
    ("O=C(NCc1cccc(Cl)c1)c1cc(COc2ccc3ncccc3c2)on1", "active"),
    ("CCN(CC)S(=O)(=O)c1cccc(NC(=O)CNc2cccc(S(=O)(=O)N3CCCC3)c2)c1", "active"),
    ("COCC1CCCCN1C(=O)c1cc(COc2ccc3ncccc3c2)on1 (stereo unspecified)", "active"),
]

Problem: // return assay outcome for N#Cc1ccc(NC(=O)Nc2ccc(Oc3ccc(NC(=O)Nc4ccc(C#N)cc4)cc3)cc2)cc1
Result: active

Problem: And for COc1ccc(C2=NS(=O)(=O)N(C)C(C(=O)N3CCc4ccccc4C3)=C2)cc1OC ?
Result: active

Problem: Also check O=C(c1cc(COc2c(F)cccc2F)on1)N1CCC(c2ccncc2)CC1
Result: active

Problem: Subsequent entry: Cc1ccc(CNC(=O)c2cc3c(C)nc4ccccc4c3o2)cc1
Result: active

Problem: Now consider Cn1nc(C(C)(C)C)cc1C(=O)N1CCCCC1c1cc(C(=O)Nc2cccc3c2CCCC3)no1 (stereo unspecified) .
Result: active

* * *

Tested on: Clone20 osteoblast Shn3 3'UTR firefly luciferase, 24 h
Assay: Shn3 3'UTR reporter inhibitors, dose response, cell-based, Clone20 osteoblasts, luminescence, dry powder, set 2 (AID 743417)
Records with an inconclusive call do not appear.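 How the source made its calls: active means compounds lowering the luciferase signal with a fitted half-maximal dose at most twice their top valid dose (cut at about 30 µM in these data); inconclusive means flat fits with moderate signal loss, or poor fits; inactive means the rest.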
Just give me one of these, please: yes for active, no for inactive

Problem: Which outcome was assigned to Cc1ccccc1CS(=O)(=O)c1nnc([C@H](Cc2ccccc2)NC(=O)OC(C)(C)C)o1 in this test?
Result: yes

Problem: Query CCCCNc1c(-c2ccc(OC)c(Sc3ccc(OC)cc3)c2)nc2ccccn12 next
Result: yes

* * *

Test system: Clone20 osteoblast Shn3 3'UTR firefly luciferase, 24 h
Experiment: Shn3 3'UTR reporter inhibitors, dose response, cell-based, Clone20 osteoblasts, luminescence, dry powder, set 2 (AID 743417)
Inconclusive results are not listed.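 Rule for the calls: active = compounds lowering the luciferase signal with a fitted half-maximal dose at most twice their top valid dose (cut at about 30 µM in these data); inconclusive = flat fits with moderate signal loss, or poor fits; inactive = the rest.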
Give one outcome, nothing more. List: true (1) for active, false (0) for inactive

As a guide, the following entries are already answered.
# compound, assigned category
records = [
    ("CN1CCN(S(=O)(=O)c2ccc(N(C)Cc3ccc(C(F)(F)F)cc3)c([N+](=O)[O-])c2)CC1", "true (1)"),
    ("CCCCn1c(CN(C)Cc2ccccc2)nc2c1c(=O)n(C)c(=O)n2C", "true (1)"),
    ("CC(C)OC(=O)c1ccc(NCc2cc(O)ccc2O)cc1", "true (1)"),
    ("CCC(OC(=O)c1ccc(S(C)(=O)=O)c([N+](=O)[O-])c1)C(=O)NC1C2CC3CC(C2)CC1C3 (centres undefined)", "true (1)"),
]

Problem: # fetch the recorded call for CNC[C@H](CC1CCCCC1)NC[C@H](Cc1ccccc1)NCCC12CC3CC(CC(C3)C1)C2 here
Result: true (1)

Problem: And the next one, CC(C)NS(=O)(=O)c1ccc(CCC(=O)Nc2cc(Cl)ccc2Oc2ccccc2)cc1 ?
Result: true (1)

Problem: What about CCN(CCCl)c1cc(CN(C)C)cc(NC(=O)c2ccc(C(=O)Nc3cc(CN(C)C)cc(N(CC)CCCl)c3)cc2)c1 ?
Result: true (1)
